FYI, the data here is from the Human Domainome abundance scans (Beltran et al. 2025).

B1: POU domain, class 3, transcription factor 2, residues 262 to 338; numbered along this chain, P20265 (parent)
chain: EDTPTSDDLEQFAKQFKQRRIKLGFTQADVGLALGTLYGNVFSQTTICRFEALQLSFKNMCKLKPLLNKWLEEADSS

- Variants of: B1
- assayDetails: abundance fitness (aPCA) (normalised: wild type 0, dead -1); higher = more abundant; growth selection in yeast, the domain comes from the species named
- conditionsUsed: Homo sapiens
measuredProperty: abundance fitness

[
  {
    "change": "Q15N",
    "measured": 0.063
  },
  {
    "change": "F25S",
    "measured": -0.513
  },
  {
    "change": "E51K",
    "measured": -0.666
  },
  {
    "change": "V30N",
    "measured": -0.381
  },
  {
    "change": "F16G",
    "measured": -0.818
  },
  {
    "change": "F42L",
    "measured": 0.053
  },
  {
    "change": "C48V",
    "measured": -0.099
  },
  {
    "change": "K69A",
    "measured": -0.094
  },
  {
    "change": "N59K",
    "measured": -0.022
  },
  {
    "change": "L67S",
    "measured": -0.619
  },
  {
    "change": "F42Q",
    "measured": 0.072
  },
  {
    "change": "T45H",
    "measured": -0.066
  },
  {
    "change": "F25I",
    "measured": -0.096
  },
  {
    "change": "A13W",
    "measured": -0.913
  },
  {
    "change": "R20A",
    "measured": -1.05
  },
  {
    "change": "L32K",
    "measured": 0.493
  },
  {
    "change": "F16H",
    "measured": -0.91
  },
  {
    "change": "L63F",
    "measured": -0.347
  },
  {
    "change": "T46W",
    "measured": -0.307
  },
  {
    "change": "Q15C",
    "measured": -0.147
  },
  {
    "change": "C61K",
    "measured": -0.056
  },
  {
    "change": "K62L",
    "measured": -0.007
  }
]
